Test system: KMRC-20 (Kidney Carcinoma)
protocol: Bliss excess, mean over the matrix (fraction); higher = more synergy
Measured Bliss excess, listed per entry.
Give the figure only, with no unit attached.

Past entries and their recorded results:
CC(=O)c1c(C)c2cnc(Nc3ccc(N4CCNCC4)cn3)nc2n(C2CCCC2)c1=O [Palbociclib] + CN(CC[C@H](CSC1=CC=CC=C1)NC2=C(C=C(C=C2)S(=O)(=O)NC(=O)C3=CC=C(C=C3)N4CCC(CC4)[C@H](C5=CC=CC=C5C6=CC=C(C=C6)Cl)O)S(=O)(=O)C(F)(F)F)CCO [AZD4320] (first compound max 10 µM, 7x7, partner max 1 µM) : -0.0504
Cc1cc2ncnn2cc1Nc1ncc2c(n1)n(C1CCOCC1)c(=O)n2C [AZD7648] + C=CCn1c(=O)c2cnc(Nc3ccc(N4CCN(C)CC4)cc3)nc2n1-c1cccc(C(C)(C)O)n1 [AZD1775] (first compound max 10 µM, partner max 1 µM) : -0.0164

Pending compound:
# input Tell me the measured Bliss excess of CN(C)CCCOc1ccc(-c2ccc3ncc4c(c3c2)n(C2CCOCC2)c(=O)n4C)cn1 [AZD0156] + C=CCn1c(=O)c2cnc(Nc3ccc(N4CCN(C)CC4)cc3)nc2n1-c1cccc(C(C)(C)O)n1 [AZD1775] (first compound max 1 µM, partner max 1 µM) , please.
# output -0.0707

* * *

Tested on: SAS (Oral Cavity Carcinoma)
protocol: Bliss excess, mean over the matrix (fraction); higher = more synergy
Tag: y if measured Bliss excess is not below -0.01, n if it is.

CN(CCO)CC[C@H](CSc1ccccc1)Nc1ccc(S(=O)(=O)NC(=O)c2ccc(N3CCC([C@@H](O)c4ccccc4-c4ccc(Cl)cc4)CC3)cc2)cc1S(=O)(=O)C(F)(F)F [AZD4320] + Cc1cc2ncnn2cc1Nc1ncc2c(n1)n(C1CCOCC1)c(=O)n2C [AZD7648] (first compound max 1 µM, 7x7, partner max 10 µM) : n
Cn1cnc2c(F)c(Nc3ccc(Br)cc3Cl)c(C(=O)NOCCO)cc21 [Selumetinib] + CC(C)n1c(=O)n(C)c2cnc3cc(F)c(-c4ccc(OCCCN5CCCCC5)nc4)cc3c21 [AZD1390] (first compound max 10 µM, 7x7, partner max 0.3 µM) : n

# input Would you say CCN(CCO)CCCOc1ccc2c(Nc3cc(CC(=O)Nc4cccc(F)c4)[nH]n3)ncnc2c1 [AZD2811] + C[C@@H]1COCCN1C2=NC(=NC(=C2)C3(CC3)[S@](=N)(=O)C)C4=C5C=CNC5=NC=C4 [AZD6738] (first compound max 1 µM, 7x7, partner max 10 µM) shows Bliss excess at minimum -0.01?
# output n

# input Check this molecule for Bliss excess at or above -0.01: Cc1cc2ncnn2cc1Nc1ncc2c(n1)n(C1CCOCC1)c(=O)n2C [AZD7648] + CCN(CCO)CCCOc1ccc2c(Nc3cc(CC(=O)Nc4cccc(F)c4)[nH]n3)ncnc2c1 [AZD2811] (first compound max 10 µM, 7x7, partner max 1 µM)
# output y

* * *

Tested on: BE-13 (T-Lymphoblastic Leukemia)
protocol: combination Emax (second highest fraction inhibited in the dose matrix, 72 h); higher = more inhibition; extreme values may be limits of the assay
quantityMeasured: combination Emax
Lab note: jot down the number only; don't add units.

Worked cases, answers included:
CN(CCO)CC[C@H](CSc1ccccc1)Nc1ccc(S(=O)(=O)NC(=O)c2ccc(N3CCC([C@@H](O)c4ccccc4-c4ccc(Cl)cc4)CC3)cc2)cc1S(=O)(=O)C(F)(F)F [AZD4320] + CS(=O)(=O)CCNCc1ccc(-c2ccc3ncnc(Nc4ccc(OCc5cccc(F)c5)c(Cl)c4)c3c2)o1 [Lapatinib] (first compound max 1 µM, 7x7, partner max 10 µM) : 1
NC1(C(=O)N[C@@H](CCO)c2ccc(Cl)cc2)CCN(c2ncnc3[nH]ccc23)CC1 [Capivasertib] + C[C@@H]1COCCN1C2=NC(=NC(=C2)C3(CC3)[S@](=N)(=O)C)C4=C5C=CNC5=NC=C4 [AZD6738] (first compound max 10 µM, 7x7, partner max 10 µM) : 0.731

Please find the next molecule below.
# input GET /values?readout=combination Emax&item= CS(=O)(=O)CCNCc1ccc(-c2ccc3ncnc(Nc4ccc(OCc5cccc(F)c5)c(Cl)c4)c3c2)o1 [Lapatinib] + NC1(c2ccc(-c3nc4ccn5c(=O)[nH]nc5c4cc3-c3ccccc3)cc2)CCC1 [MK-2206] (first compound max 10 µM, 7x7, partner max 10 µM)
# output 0.971

* * *

This section presents molecules with their documented combination Emax values.
Test system: YAPC (Pancreatic Carcinoma)
protocol: combination Emax (second highest fraction inhibited in the dose matrix, 72 h); higher = more inhibition; extreme values may be limits of the assay
Give a plain numeric answer without units written out.

As a guide, the following entries are already answered.
CC1(C)CCC(CN2CCN(c3ccc(C(=O)NS(=O)(=O)c4ccc(NCC5CCOCC5)c([N+](=O)[O-])c4)c(Oc4cnc5[nH]ccc5c4)c3)CC2)=C(c2ccc(Cl)cc2)C1 [Venetoclax] + CS(=O)(=O)CCNCc1ccc(-c2ccc3ncnc(Nc4ccc(OCc5cccc(F)c5)c(Cl)c4)c3c2)o1 [Lapatinib] (first compound max 1 µM, 7x7, partner max 10 µM) : 0.129
Cn1cnc2c(F)c(Nc3ccc(Br)cc3Cl)c(C(=O)NOCCO)cc21 [Selumetinib] + C=CCn1c(=O)c2cnc(Nc3ccc(N4CCN(C)CC4)cc3)nc2n1-c1cccc(C(C)(C)O)n1 [AZD1775] (first compound max 10 µM, partner max 1 µM) : 0.396

API: the following record is the query input.
# input GET /values?readout=combination Emax&item= C=CCn1c(=O)c2cnc(Nc3ccc(N4CCN(C)CC4)cc3)nc2n1-c1cccc(C(C)(C)O)n1 [AZD1775] + C1CN(CCC1(C(=O)N[C@@H](CCO)C2=CC=C(C=C2)Cl)N)C3=NC=NC4=C3C=CN4 [Capivasertib] (first compound max 3 µM, partner max 3 µM)
# output 0.591

* * *

Test system: GAMG (Glioblastoma)
protocol: Bliss excess, mean over the matrix (fraction); higher = more synergy
# label = yes (1) if Bliss excess >= 0.02 else no (0)

CN(C)CCCOc1ccc(-c2ccc3ncc4c(c3c2)n(C2CCOCC2)c(=O)n4C)cn1 [AZD0156] + C=CCn1c(=O)c2cnc(Nc3ccc(N4CCN(C)CC4)cc3)nc2n1-c1cccc(C(C)(C)O)n1 [AZD1775] (first compound max 1 µM, partner max 1 µM) : no (0)
CC1(C)CCC(CN2CCN(c3ccc(C(=O)NS(=O)(=O)c4ccc(NCC5CCOCC5)c([N+](=O)[O-])c4)c(Oc4cnc5[nH]ccc5c4)c3)CC2)=C(c2ccc(Cl)cc2)C1 [Venetoclax] + CN(C)CCCOc1ccc(-c2ccc3ncc4c(c3c2)n(C2CCOCC2)c(=O)n4C)cn1 [AZD0156] (first compound max 1 µM, 7x7, partner max 1 µM) : no (0)
N#Cc1cnc(Nc2cc(NC[C@H]3CNCCO3)c(C(F)(F)F)cn2)cn1 [SRA737] + Nc1ccn([C@@H]2O[C@H](CO)[C@@H](O)C2(F)F)c(=O)n1 [Gemcitabine] (first compound max 10 µM, 7x7, partner max 0.3 µM) : yes (1)
C=CCn1c(=O)c2cnc(Nc3ccc(N4CCN(C)CC4)cc3)nc2n1-c1cccc(C(C)(C)O)n1 [AZD1775] + C1CN(CCC1(C(=O)N[C@@H](CCO)C2=CC=C(C=C2)Cl)N)C3=NC=NC4=C3C=CN4 [Capivasertib] (first compound max 3 µM, partner max 3 µM) : no (0)
COc1cccc(OCCCN)c1-c1cc(Nc2cnc(C#N)cn2)n[nH]1 [Prexasertib] + Cc1cc2ncnn2cc1Nc1ncc2c(n1)n(C1CCOCC1)c(=O)n2C [AZD7648] (first compound max 1 µM, 7x7, partner max 10 µM) : no (0)
CN(CCO)CC[C@H](CSc1ccccc1)Nc1ccc(S(=O)(=O)NC(=O)c2ccc(N3CCC([C@@H](O)c4ccccc4-c4ccc(Cl)cc4)CC3)cc2)cc1S(=O)(=O)C(F)(F)F [AZD4320] + Cn1cnc2c(F)c(Nc3ccc(Br)cc3Cl)c(C(=O)NOCCO)cc21 [Selumetinib] (first compound max 1 µM, 7x7, partner max 3 µM) : no (0)
COc1cccc2c1C(=O)c1c(O)c3c(c(O)c1C2=O)C[C@@](O)(C(=O)CO)C[C@@H]3O[C@H]1C[C@H](N)[C@H](O)[C@H](C)O1 [Doxorubicin] + Cc1cc2ncnn2cc1Nc1ncc2c(n1)n(C1CCOCC1)c(=O)n2C [AZD7648] (first compound max 1 µM, 7x7, partner max 10 µM) : yes (1)
Cc1c2c(nn1C)CSCc1cc(n(C)n1)CSc1cc(c3ccccc3c1)OCCCc1c(C(=O)O)n(C)c3c-2c(Cl)ccc13 [AZD5991] + CS(=O)(=O)CCNCc1ccc(-c2ccc3ncnc(Nc4ccc(OCc5cccc(F)c5)c(Cl)c4)c3c2)o1 [Lapatinib] (first compound max 1 µM, 7x7, partner max 10 µM) : no (0)

# input Is reported Bliss excess greater than or equal to 0.02 here: O=C(c1cc(Cc2n[nH]c(=O)c3ccccc23)ccc1F)N1CCN(C(=O)C2CC2)CC1 [Olaparib] + CN(CC[C@H](CSC1=CC=CC=C1)NC2=C(C=C(C=C2)S(=O)(=O)NC(=O)C3=CC=C(C=C3)N4CCC(CC4)[C@H](C5=CC=CC=C5C6=CC=C(C=C6)Cl)O)S(=O)(=O)C(F)(F)F)CCO [AZD4320] (first compound max 10 µM, 7x7, partner max 1 µM)
# output no (0)

# input Does N#Cc1cnc(Nc2cc(NC[C@H]3CNCCO3)c(C(F)(F)F)cn2)cn1 [SRA737] + CCc1c2c(nc3ccc(O)cc13)-c1cc3c(c(=O)n1C2)COC(=O)[C@]3(O)CC [SN-38] (first compound max 10 µM, 7x7, partner max 0.3 µM) have a reported Bliss excess of at least 0.02?
# output yes (1)

# input Is Bliss excess at least 0.02? Consider Cc1c2c(nn1C)CSCc1cc(n(C)n1)CSc1cc(c3ccccc3c1)OCCCc1c(C(=O)O)n(C)c3c-2c(Cl)ccc13 [AZD5991] + Nc1ccn([C@@H]2O[C@H](CO)[C@@H](O)C2(F)F)c(=O)n1 [Gemcitabine] (first compound max 1 µM, 7x7, partner max 0.3 µM)
# output no (0)

# input Is reported Bliss excess greater than or equal to 0.02 here: C[C@@H](Oc1cc(-c2cnn(C3CCNCC3)c2)cnc1N)c1c(Cl)ccc(F)c1Cl [Crizotinib] + CC1=C(C(=CC=C1)Cl)NC(=O)C2=CN=C(S2)NC3=CC(=NC(=N3)C)N4CCN(CC4)CCO [Dasatinib] (first compound max 10 µM, 7x7, partner max 2 µM)
# output no (0)

# input Could you please find out whether Cc1cc2ncnn2cc1Nc1ncc2c(n1)n(C1CCOCC1)c(=O)n2C [AZD7648] + C[C@@H]1COCCN1C2=NC(=NC(=C2)C3(CC3)[S@](=N)(=O)C)C4=C5C=CNC5=NC=C4 [AZD6738] (first compound max 10 µM, 7x7, partner max 10 µM) has Bliss excess that meets 0.02 or exceeds it?
# output no (0)

# input State whether the measured Bliss excess reaches 0.02, counting equality as reaching it, for NC1(C(=O)N[C@@H](CCO)c2ccc(Cl)cc2)CCN(c2ncnc3[nH]ccc23)CC1 [Capivasertib] + COc1nnc2ccc(N3CCC(c4ccc(OCCN5CCN(C)C(=O)[C@H]5C)cc4)CC3)nn12 [AZD5153] (first compound max 10 µM, 7x7, partner max 1 µM)
# output yes (1)
